Experiment: label from the status in PepcDB records
measurement_label: protein production

MSRRAGHNGRPLLEVPMLLRGLTWLVLFQLLGTGLNVLLLPMLPGPIIGLVLLFGYFLARGEVGKPVNEAAGSLLRYLPLLLVPAAVGVMAYAREIAADFWAIVGALVLSLLLSFLFAGWMMQKLIDRQQRRREES | failed
MGGNRQQEIASGCCLVAEQHDQVVAYASYQPTGLLGQPLLTYLCVAPAMRGQGIAKQLVETIQGQARGRMLLSSTEDWCLASQKIFTDLGWRKIGALAGVNKDGSTEYFYAVDLNH | failed
MWGRLLLWPLVLGFSLSGGTQTPSVYDESGSTGGGDDSTPSILPAPRGYPGQVCANDSDTLELPDSSRALLLGWVPTRLVPALYGLVLVVGLPANGLALWVLATQAPRLPSTMLLMNLATADLLLALALPPRIAYHLRGQRWPFGEAACRLATAALYGHMYGSVLLLAAVSLDRYLALVHPLRARALRGRRLALGLCMAAWLMAAALALPLTLQRQTFRLARSDRVLCHDALPLDAQASHWQPAFTCLALLGCFLPLLAMLLCYGATLHTLAASGRRYGHALRLTAVVLASAVAFFVPSNLLLLLHYSDPSPSAWGNLYGAYVPSLALSTLNSCVDPFIYYYVSAEFRDKVRAGLFQRSPGDTVASKASAEGGSRGMGTHSSLLQ | failed
GEGIQPSKKLITRDYKVKEFNKIDAGTVGNIYYTQSTDGKTDLQIYGPDNIVALIQVAVKDNTLFLSIDKSKKVRNFKKMKITITSPTLNGISFKGVGDVHIENGLTTDNLDIESKGVGNVDIQSLTCQKLNVQSMGVGDVKLEGTAQIAALHSKGVGNIEAGNLRANAVEASSQGVGDITCNATESIDAAVRGVGSIKYKGSPTIKSLSKKGVGTIKNI | not failed
MNEYQIKFKEDCYYAENNAGKVIGELLYSKIKQGKVISINQVRVDPLFRNRGIAGKLLKKAVDDAVKNGQLIKAVCSFSKKAFLQNKNYQKYEYKEN | failed

In plain terms, MLDVRARAALSGPLDRAAAMLDRPAVTPNRLTALGLLTGLASAGSAAAGWWPAAAALWLLSRLADGLDGPLARRRGTANSSGAGGFLDISADFLVYGAFVVGVAVGVGGPALPFLLVLLTYYVNGTAFLAFSSIAERTGRRGDGRLSGGRSLNFLGGLAEGGETIAVHTLWCLLPGFAHTIAWVWAAVVAVTAAHRVVTGYRQLR has a documented protein production of failed

Per the record, MEEAKGPVKHVLLASFKDGVSPEKIEELIKGYANLVNLIEPMKAFHWGKDVSIENLHQGYTHIFESTFESKEAVAEYIAHPAHVEFATIFLGSLDKVLVIDYKPTSVSL has protein production of not failed

protein production reported for this sequence MTDPLIPVDTYLVDSLPEVWFGAVVFALGMYIVLDGFDFGIGMLYATRTDEHERETFLAAFGPVWDANEVWIVAFGTMLLAAFPRVYSRLLADNYLLALGFVVALVFRGLGPELREQREDERWKRYTDYAFVGGSVFAPLLLGMLAGRWLFAGATLPVVLTGVGLVAVSIVTGAAFLAAKTDSGLASELRSYGVGATVAYLGGVVVLLGTVVATDAGGAASAVLSLPVAAVVALSIVAGLGGSVLARRGRYRAWLASALALPTLLTLLVAVLLYPTVYPPTGLLVREAVVSPLALNLVTVLGFPVLLLVLWYFKFLYGVFSGPIEGEGYGG : failed

get_value(item= SGILFMSKVGLRGDRRSEGDEVLDPLRQALDSSMQSHNLYQHPQHLAFHVSAPVASTVQQASGLLGPLPHLSSFALQPAHSLLPPLGSHGAGFQENGAKAES , readout=protein production) returns not failed

The recorded protein production for entry MYFEIYKDAKGEYRWRLKAANHEIIAQGEGYTSKQNCQHAVDLLKSTTAATPVKEVLEHHHHHH equals not failed

Entry MHNDFNLLILSGPSGAGKSTLTKYLQEKIPKTHFSLSTTTRKPREGEVDGLHYNFVSEEEFKQGIEKGQFLEWAIVHNHYYGTSKIPVEKALKEGKIVIFDIDVQGHEILKKHYPNACSVFISTKNQEILKERLLLRGTDSKETIEKRLINAYKEMQCLESFDYLIINEDLEKSKEIILSIAKTLVHRLKAFNFEKICKAWKNETL — recorded protein production = failed

Query MKSYTKHTHTNRLASESSPYLLQHAHNPVEWFPWGEEALQKAKAEDKPILVSIGYSACHWCHVMEHECFEKEEVAAVMNDLFINIKIDREERPDLDQIYMDAVSAMGLRGGWPLNVFLTPDAKPFYGGTYFPQDHWLNLLGQISNAYLNHREDILKSAESFTESLNQSDVF yields protein production of not failed

// field: protein production; key: VTGDRAGGRSWCLRRVGMSAGWLLLEDGCEVTVGRGFGVTYQLVSKICPLMISRNHCVLKQNPEGQWTIMDNKSLNGVWLNRARLEPLRVYSIHQGDYIQLGVPLENKENAEYEYEVTEEDWETIYPCLSPK ; value = not failed

protein production for QQMQAESGFVQHVGFKCDNCGIEPIQGVRWHCQDCPPEMSLDFCDSCSDCLHETDIHKEDHQLEPIYRS is not failed

Notebook: NVVLRILAWLLAVGLVVLPVVAVLNGWVGAERWPLAKLRVSGDFKRVSAEELRAVVLPYVRSGFFAVRLPQVQDAVERLPWVERAHVSKRWPDVLEVSVVEHQPFARWGSDRMLSEQGRLFPVPGGLKNLKLPQLGGPDMKVRDVVALYKASSALFASTGLDVSWLQMDARGSWSLGLSNGLQIFVGRDDARARLERFARVLPQLLDPQRPVVRADLRYTN , protein production read as failed

Note to self: protein production recorded for MSLTFSILAHDPETGAIGGAAATGSLCVGGWVLRGDLNAGMSASQGAAPSTFWGEEVLQHLRDGSHPEDAVNHVTSQDSGRAYRQLAAMDLLGNAAAFTGSENQDIKGSVTFASGIASGNMLGDNSVLGAMTEAFVASDLTFERRLLAALIAAEGAGSDFRGLLSAAMLVLHPDRPPVTLRIDYHPDNPIGALEQLYQKATTGDYADWARQVPVLSDKERILDEGHHHHHH was not failed
